test system: RFL-6 cells; experiment: IC50 experiment, cytotoxicity / growth inhibition of RFL-6 rat fibroblast cells; type: cell-based; settings: Rattus norvegicus, RFL-6; free amino acid; mean ± SD (n); read-out: IC50, Free AA
Reported values of IC50 for individual entries
Write the answer as a number in µM, unit excluded.

Known IC50 results, listed for orientation:
| MOLECULE | REPORTED_RESULT |
| --- | --- |
| O=C(O)[C@@H]1CSCN1 [THP, (R)-(−)-2-thiazolidine-4-carboxylic acid] | 700 |
| O=C(O)C1C=CCN1 (racemic) [DHP, 3,4-dehydro-DL-proline] | 700 |
| O=C(O)[C@@H]1C[C@H](O)CN1 (stereo in doubt) [cHyp, cis-4-hydroxy-L-proline] | 8800 |

Next up:
Suppose we examine the molecule O=C(O)[C@@H]1CCN1 [ACA, (S)-(−)-2-azetidinecarboxylic acid] ; what IC50 value has been reported?
1700
